test system: HT29 colon; assay: NCI tumour cell line growth inhibition, 48 h
Reported TGI by item:

Solved cases (5 shown):
CCCCCCOc1ccc(NC2=C(Cl)C(=O)c3ncccc3C2=O)cc1 | > 10 µM
Cc1ccccc1C(C(=O)NC1CCCCC1)N(C(=O)Cn1ccnc1C)c1cccc(F)c1 (stereo unspecified) | > 100 µM
COc1ccc(/C=C2\CN(C)Cc3c2[nH]c(=O)c(C#N)c3-c2ccc(OC)cc2)cc1 | > 100 µM
COc1ccc2c(c1)C(=O)c1c-2n(CCCN2CCOCC2)c(=O)c2cc([N+](=O)[O-])ccc12 | > 100 µM
N/C(=N\c1nc2ccccc2s1)NC(=O)Nc1cccc2ccccc12 | > 100 µM

Consider the additional molecule presented here.
Problem: Query (molecule): O=CN1CCN(C=S)CC1 ; field requested: TGI
Solution: > 100 µM

====

system: HCC-2998 colon; test: NCI tumour cell line growth inhibition, 48 h
reportedEndpoint: TGI

Solved cases (5 shown):
COc1cc2ncn(-c3cc(OCc4ccccc4S(C)(=O)=O)c(C#N)s3)c2cc1OC | > 25 µM
CC1(C)[C@@H]2C[C@H]1C(Cc1cccc(C[C@H]3c4cc(-c5ccccn5)ncc4[C@H]4C[C@@H]3C4(C)C)c1)c1cc(-c3ccccn3)ncc12 (stereo partly drawn) | > 100 µM
NC(=O)CS(=O)CC(N)C(=O)O (stereo not drawn) | > 100 µM
O=C(NN1C(=O)C=CC1=O)c1ccccc1Nc1ccccc1C(=O)NN1C(=O)C=CC1=O | > 100 µM
O=C1C[C@H](c2ccccc2)C2(C(=O)c3ccccc3C2=O)[C@H](c2ccccc2)C1 | > 100 µM

Problem: Query (molecule): CNC(=O)OCc1[nH]ccc2c(C)c3nc4ccc(OC)cc4c3cc12 ; field requested: TGI
Solution: > 53.5 µM

Problem: Query (molecule): N#C[C@H]1Nc2ccccc2[C@@H](O)C1O (stereo partly drawn) ; field requested: TGI
Solution: > 100 µM

====

system: MALME-3M melanoma; assay: NCI tumour cell line growth inhibition, 48 h
Reported TGI by item:

Solved cases (4 shown):
COc1cc(C(SCc2ccccc2)SCc2ccccc2)ccc1O | > 10 µM
N#Cc1nc(/C=C/c2ccccc2)oc1N | > 100 µM
COc1cc(/C=C2\C(=O)Nc3ccccc32)cc(OC)c1OC | > 100 µM
COc1ccc(C(=O)CC(c2ccc(OC)c(OC)c2)c2c(O)c3ccccc3oc2=O)cc1OC (stereo not given) | > 100 µM

Consider the additional compound presented here.
Problem: Query (compound): CN(C)CCNC(=O)c1nc([N+](=O)[O-])cn1C ; field requested: TGI
Solution: > 100 µM

====

Reported TGI by item:
test system: HCT-116 colon; experiment: NCI tumour cell line growth inhibition, 48 h
Number only, in µM; omit the unit.

Solved cases (3 shown):
COc1ccc(C2=C(c3cc(OC)c(OC)c(OC)c3)C(=O)OC2)cc1OC | 55.5
O=C1OCC2=C1C(c1cccc(C(F)(F)F)c1)c1cc3c(cc1N2CCO)CCC3 (centres undefined) | 6.55
COc1cc(-c2nc3nc(N4CCN(C)CC4)ccc3[nH]2)c(OC)c2[nH]c(COC(C)=O)nc12 | 58.6

Problem: Find the measured TGI: item O=[N+]([O-])c1ccc(Cl)cc1C=NC12CC3CC(CC(C3)C1)C2 , target or system HCT-116 colon.
Solution: 62.9

====

system: RPMI-8226 leukemia; test: NCI tumour cell line growth inhibition, 48 h; in the data active = GI50 below about 0.43 µM; inactive = the rest
Classes to choose from: t = active, f = inactive

The following compounds have reported results that may help.
CC(=O)OC12CC(C)C3(O)C4C=C(C)C(=O)[C@@]4(O)CC(CO)=C[C@H]3C1C2(C)C (some centres not stated) | f
Cc1cn2c(=O)n(c1=O)Cc1ccccc1C2 | f
COc1cc(/C=C2\C(=O)Nc3ccccc32)cc(OC)c1OC | f

Problem: Tell me the assay call for N/C(=N\c1nc2ccccc2s1)NC(=O)Nc1cccc2ccccc12 please.
Solution: t

Problem: Tell me the assay call for COc1ccc(-n2c(C)nc3c(c(C)nn3-c3ccccc3)c2=O)cc1 please.
Solution: t

Problem: Tell me the assay call for COC(=O)[C@@H]1CCCN1C(=O)[C@H]1CCCN1C(=O)[C@@H](Cc1c[nH]c2ccccc12)NC(=S)Nc1cc(C(F)(F)F)cc(C(F)(F)F)c1 please.
Solution: f

Problem: Tell me the assay call for O=C1CC/C(=C\COc2ccc3ccc(=O)oc3c2)O1 please.
Solution: f

Problem: Tell me the assay call for O=C(/C=C\c1ccc2ccccc2n1)c1cc(Cl)ccc1O please.
Solution: f

Problem: Tell me the assay call for O=C1C=CC(=O)c2c1ncc1c2nc2sccn21 please.
Solution: f

Problem: Tell me the assay call for CCC[CH2][Sn]1([CH2]CCC)[O]C(=O)CN=Cc2ccccc2[O]1 please.
Solution: t

Problem: Tell me the assay call for O=C(Nc1cccc(-n2ccc3c(NC(=O)c4ccccc4)nccc32)c1)c1cc(N2CCOCC2)cc(C(F)(F)F)c1 please.
Solution: t

Problem: Tell me the assay call for OCc1ccc(Oc2c3ccccc3nc3occc23)cc1 please.
Solution: f

====

Reported GI50 by item:
tested on: UO-31 renal; assay: NCI tumour cell line growth inhibition, 48 h

COc1cc2ncn(-c3cc(OCc4ccccc4S(C)(=O)=O)c(C#N)s3)c2cc1OC | > 25 µM
Cc1ccc2[nH]c(C(=O)NN3C(=O)C(C)SC34CCCCC4C)c(-c3ccccc3)c2c1 (stereo not drawn) | 16.8 µM

Consider the additional compound presented here.
Problem: Find the measured GI50: item Cc1ccc(/C(=C/C=C(C#N)C#N)Sc2ccccn2)cc1 , target or system UO-31 renal.
Solution: 3.21 µM

====

Reported TGI by item:
system: T-47D breast; test: NCI tumour cell line growth inhibition, 48 h

Solved cases (2 shown):
O=C1C(N=Nc2ccc(-c3nc4ccccc4[nH]3)cc2)NC(=S)N1c1ccccc1 (stereo not drawn) | 62.8 µM
O=C1C[C@H](c2ccccc2)C2(C(=O)c3ccccc3C2=O)[C@H](c2ccccc2)C1 | > 100 µM

Problem: Find the measured TGI: item CN(C)CCNC(=O)c1nc([N+](=O)[O-])cn1C , target or system T-47D breast.
Solution: > 100 µM

====

tested on: SNB-19 CNS; experiment: NCI tumour cell line growth inhibition, 48 h
Reported TGI by item:

OCc1ccc(Oc2c3ccccc3nc3occc23)cc1 | > 100 µM

Problem: Find the measured TGI: item O=C(Nc1cccc(-n2ccc3c(NC(=O)c4ccccc4)nccc32)c1)c1cc(N2CCOCC2)cc(C(F)(F)F)c1 , target or system SNB-19 CNS.
Solution: > 100 µM

Problem: Find the measured TGI: item CC(=N\N=C\c1ccccn1)/C(C)=N/N=C(C)/C(C)=N/N=C(C)/C(C)=N/N=C/c1ccccn1 , target or system SNB-19 CNS.
Solution: > 100 µM

====

Reported TGI by item:
system: COLO 205 colon; experiment: NCI tumour cell line growth inhibition, 48 h

O=C(/C=C\c1ccc2ccccc2n1)c1cc(Cl)ccc1O | 18.4 µM

Problem: Find the measured TGI: item Nc1nc2cc(CNc3ccc(C(=O)NC(CCC(=O)O)C(=O)O)cc3)ccc2nc1-c1ccccc1 (stereo not drawn) , target or system COLO 205 colon.
Solution: > 10 µM

Problem: Find the measured TGI: item O=C(NC1(C(=O)O)CC1c1ccccc1)c1ccccc1 (stereo not drawn) , target or system COLO 205 colon.
Solution: > 100 µM

Problem: Find the measured TGI: item NC(=O)NCCSC1CCCCC1O (stereo not drawn) , target or system COLO 205 colon.
Solution: > 100 µM

Problem: Find the measured TGI: item Cc1cc2nc3c4cccc(O)c4n(CCN(C)C)c3nc2cc1C , target or system COLO 205 colon.
Solution: 19.4 µM

Problem: Find the measured TGI: item CCOC(=O)c1cnc2cc3cccccc3n2c1=O , target or system COLO 205 colon.
Solution: > 100 µM

Problem: Find the measured TGI: item CO/C(=N\N=C\c1cccc(C(F)(F)F)c1)c1ccncc1 , target or system COLO 205 colon.
Solution: 39.6 µM

====

Reported GI50 by item:
system: SK-OV-3 ovarian; assay: NCI tumour cell line growth inhibition, 48 h

Solved cases (2 shown):
O=C(/C=C\c1ccc2ccccc2n1)c1cc(Cl)ccc1O | 61.4 µM
Cc1cc(C)c2c(N)c3cccc(C)c3nc2n1 | 2.11 µM

Problem: Query (molecule): COc1ccc2c(c1)[C@@]1(C)CCC3c4ccc(O)cc4CCC3C1C2 (stereo partly drawn) ; field requested: GI50
Solution: 15.7 µM

====

tested on: DU-145 prostate; experiment: NCI tumour cell line growth inhibition, 48 h
Reported TGI by item:

NC1=NC(c2ccc(F)cc2)C2=C(N1)c1ccc3ccccc3c1OCC2 (centres undefined) | > 100 µM
CCN1CCC(CC(=O)Nc2n[nH]c3nc(-c4cccs4)c(Br)cc23)CC1 | > 25 µM
c1ccc(C2=C(c3ccccc3)P(c3ccccc3)C2)cc1 (centres undefined) | > 100 µM

Consider the additional molecule presented here.
Problem: Find the measured TGI: item COc1cc2c(cc1Cl)n([O-])c(C#N)c(N1CCN(c3ccc([N+](=O)[O-])cc3)CC1)[n+]2=O , target or system DU-145 prostate.
Solution: > 100 µM
